# testMethodNotes: Cytotoxicity against mouse NIH/3T3 cells assessed as growth inhibition after 48 hrs by SRB assay
# Assay type: cell-based, NIH3T3
measuredEndpoint: GI50 at 48 h

Below, 3 compounds whose answers are already recorded.
>  <smiles>
O=C1C=C[C@@H]2[C@H](c3ccccc3)[C@@H](c3cccc(=O)o3)[C@]2(/C=C/c2ccccc2)O1

>  <GI50 at 48 h>
158 µM

$$$$
>  <smiles>
O=c1cccc([C@H]2[C@H](c3ccccc3)[C@H](c3cccc(=O)o3)[C@H]2c2ccccc2)o1

>  <GI50 at 48 h>
503 µM

$$$$
>  <smiles>
O=c1cccc(/C=C/c2ccccc2)o1

>  <GI50 at 48 h>
1270 µM

$$$$

Kindly review the next compound as well.
GET /value?item= `COc1cccc2c1C(=O)c1c(O)c3c(c(O)c1C2=O)C[C@@](O)(C(=O)CO)C[C@@H]3O[C@H]1C[C@H](N)[C@H](O)[C@H](C)O1` &field=GI50 at 48 h returns 0.28 µM
